# System: Staphylococcus aureus
# assay-explanation: Antibacterial activity against Staphylococcus aureus ATCC 29213 incubated for 24 hrs by microtiter plate method
# Assay type: functional
# recorded-conditions: Staphylococcus aureus, ATCC 29213, read-out: MIC
Square brackets hold non-standard residues; d marks the D form. Peptide text beside a SMILES is read from it. Dip = N[C@H](C(=O)O)C(c1ccccc1)c1ccccc1; 2Nal = N[C@@H](Cc1ccc2ccccc2c1)C(=O)O
measurement-kind: MIC (µg/mL)
# value in µg/mL; strip the unit string

Data request: So what's the measured MIC for this one? N=C(N)NCCC[C@@H]1NC(=O)[C@H](CCCNC(=N)N)NC(=O)[C@H](CCCNC(=N)N)NC(=O)[C@H](Cc2ccc3ccccc3c2)NC(=O)[C@H](Cc2ccc3ccccc3c2)NC(=O)[C@H](Cc2ccc3ccccc3c2)NC(=O)[C@H](CCCNC(=N)N)NC1=O (cyclo(RRRR[2Nal][2Nal][2Nal]))
Data returned: 3.1

Data request: Item NCCCC[C@H](NC(=O)[C@H](CCCCN)NC(=O)[C@@H](N)CCCCN)C(=O)N[C@@H](CCCCN)C(=O)N[C@H](C(=O)N[C@H](C(=O)N[C@H](C(=O)O)C(c1ccccc1)c1ccccc1)C(c1ccccc1)c1ccccc1)C(c1ccccc1)c1ccccc1 (H-KKKK[Dip][Dip][Dip]-OH) has what recorded MIC?
Data returned: 25

Data request: Could you share which MIC value was measured for N=C(N)NCCC[C@H](NC(=O)[C@@H](NC(=O)[C@@H](NC(=O)[C@H](CCCNC(=N)N)NC(=O)[C@H](CCCNC(=N)N)NC(=O)[C@@H](NC(=O)[C@@H](N)CCCNC(=N)N)C(c1ccccc1)c1ccccc1)C(c1ccccc1)c1ccccc1)C(c1ccccc1)c1ccccc1)C(=O)O (H-R[Dip]RR[Dip][Dip]R-OH) ?
Data returned: 12.5

----------
Here, each record is paired with measured viability at 24 h, 50 ug/ml data.
# assay-explanation: Cytotoxicity against human MRC5 assessed as cell viability at 50 ug/ml incubated for 24 hrs by microplate spectrophotometer analysis method relative to control
# Assay type: toxicity, cell-based
# recorded-conditions: MRC5 cells, at 50 µg/mL, read-out: Activity
Square brackets hold non-standard residues; d marks the D form. Peptide text beside a SMILES is read from it. Dip = N[C@H](C(=O)O)C(c1ccccc1)c1ccccc1; 2Nal = N[C@@H](Cc1ccc2ccccc2c1)C(=O)O
Kindly write the number and append the unit.

Data request: Need viability at 24 h, 50 ug/ml, item N=C(N)NCCC[C@@H]1NC(=O)[C@H](CCCNC(=N)N)NC(=O)[C@H](CCCNC(=N)N)NC(=O)[C@H](C(c2ccccc2)c2ccccc2)NC(=O)[C@H](C(c2ccccc2)c2ccccc2)NC(=O)[C@H](C(c2ccccc2)c2ccccc2)NC(=O)[C@H](CCCNC(=N)N)NC1=O (cyclo(RRRR[Dip][Dip][Dip]))
Data returned: 93%

Next compound, viability at 24 h, 50 ug/ml to be filled in.
Data request: Value lookup for viability at 24 h, 50 ug/ml; key = N=C(N)NCCC[C@@H]1NC(=O)[C@H](CCCNC(=N)N)NC(=O)[C@H](CCCNC(=N)N)NC(=O)[C@H](Cc2ccc3ccccc3c2)NC(=O)[C@H](Cc2ccc3ccccc3c2)NC(=O)[C@H](Cc2ccc3ccccc3c2)NC(=O)[C@H](CCCNC(=N)N)NC1=O (cyclo(RRRR[2Nal][2Nal][2Nal]))
Data returned: 93%

----------
# assay-explanation: Proteolytic stability in human plasma at 100 uM incubated for 24 hrs by Q-TOF LC/MS analysis relative to control
# Type: ADME, cell-free
# recorded-conditions: read-out: Stability
Square brackets hold non-standard residues; d marks the D form. Peptide text beside a SMILES is read from it. Dip = N[C@H](C(=O)O)C(c1ccccc1)c1ccccc1; 2Nal = N[C@@H](Cc1ccc2ccccc2c1)C(=O)O
measurement-kind: remaining at 24 h, 100 µM (%)
Express your answer in %, writing the number without its unit.

The examples below pair each entry with its known result.
Data request: What does the data say about its remaining at 24 h, 100 µM? Entry: N=C(N)NCCC[C@H](NC(=O)[C@H](CCCNC(=N)N)NC(=O)[C@@H](N)CCCNC(=N)N)C(=O)N[C@@H](CCCNC(=N)N)C(=O)N[C@H](C(=O)N[C@H](C(=O)N[C@H](C(=O)O)C(c1ccccc1)c1ccccc1)C(c1ccccc1)c1ccccc1)C(c1ccccc1)c1ccccc1 (H-RRRR[Dip][Dip][Dip]-OH)
Data returned: 21

Data request: I would be grateful if you could share the reported remaining at 24 h, 100 µM for N=C(N)NCCC[C@@H]1NC(=O)[C@H](CCCNC(=N)N)NC(=O)[C@H](CCCNC(=N)N)NC(=O)[C@H](Cc2ccc3ccccc3c2)NC(=O)[C@H](Cc2ccc3ccccc3c2)NC(=O)[C@H](Cc2ccc3ccccc3c2)NC(=O)[C@H](CCCNC(=N)N)NC1=O (cyclo(RRRR[2Nal][2Nal][2Nal])) .
Data returned: 60

Data request: # remaining at 24 h, 100 µM lookup, item N=C(N)NCCC[C@@H]1NC(=O)[C@H](CCCNC(=N)N)NC(=O)[C@H](CCCNC(=N)N)NC(=O)[C@H](C(c2ccccc2)c2ccccc2)NC(=O)[C@H](C(c2ccccc2)c2ccccc2)NC(=O)[C@H](C(c2ccccc2)c2ccccc2)NC(=O)[C@H](CCCNC(=N)N)NC1=O (cyclo(RRRR[Dip][Dip][Dip]))
Data returned: 65

Turning to the following compound.
Data request: Quick one: remaining at 24 h, 100 µM for N=C(N)NCCC[C@H](NC(=O)[C@H](CCCNC(=N)N)NC(=O)[C@H](CCCNC(=N)N)NC(=O)[C@@H](N)CCCNC(=N)N)C(=O)N[C@@H](Cc1ccc2ccccc2c1)C(=O)N[C@@H](Cc1ccc2ccccc2c1)C(=O)N[C@@H](Cc1ccc2ccccc2c1)C(=O)O (H-RRRR[2Nal][2Nal][2Nal]-OH) ?
Data returned: 32

----------
# Tested on: Escherichia coli
# assay-explanation: Antibacterial activity against Escherichia coli ATCC 25922 incubated for 24 hrs by microtiter plate method
# Format: functional
# recorded-conditions: Escherichia coli, ATCC 25922, 24 h, read-out: MIC
Square brackets hold non-standard residues; d marks the D form. Peptide text beside a SMILES is read from it. Bip = N[C@@H](Cc1ccc(-c2ccccc2)cc1)C(=O)O; Dip = N[C@H](C(=O)O)C(c1ccccc1)c1ccccc1; 2Nal = N[C@@H](Cc1ccc2ccccc2c1)C(=O)O
measurement-kind: MIC

Data request: // returns reported MIC for input N=C(N)NCCC[C@H](NC(=O)[C@H](CCCNC(=N)N)NC(=O)[C@@H](N)CCCNC(=N)N)C(=O)N[C@@H](CCCNC(=N)N)C(=O)N[C@H](C(=O)N[C@H](C(=O)N[C@H](C(=O)N[C@H](C(=O)O)C(c1ccccc1)c1ccccc1)C(c1ccccc1)c1ccccc1)C(c1ccccc1)c1ccccc1)C(c1ccccc1)c1ccccc1 (H-RRRR[Dip][Dip][Dip][Dip]-OH)
Data returned: 50 µg/mL

Data request: Which MIC is listed for N=C(N)NCCC[C@H](NC(=O)[C@H](CCCNC(=N)N)NC(=O)[C@H](CCCNC(=N)N)NC(=O)[C@@H](N)CCCNC(=N)N)C(=O)N[C@@H](Cc1ccc(-c2ccccc2)cc1)C(=O)N[C@@H](Cc1ccc(-c2ccccc2)cc1)C(=O)N[C@@H](Cc1ccc(-c2ccccc2)cc1)C(=O)N[C@@H](Cc1ccc(-c2ccccc2)cc1)C(=O)O (H-RRRR[Bip][Bip][Bip][Bip]-OH) ?
Data returned: > 100 µg/mL

Data request: Need MIC, item NCCCC[C@H](NC(=O)[C@H](CCCCN)NC(=O)[C@H](CCCCN)NC(=O)[C@@H](N)CCCCN)C(=O)N[C@@H](CCCCN)C(=O)N[C@H](C(=O)N[C@H](C(=O)N[C@H](C(=O)O)C(c1ccccc1)c1ccccc1)C(c1ccccc1)c1ccccc1)C(c1ccccc1)c1ccccc1 (H-KKKKK[Dip][Dip][Dip]-OH)
Data returned: > 100 µg/mL

Data request: MIC lookup needed for N=C(N)NCCC[C@@H]1NC(=O)[C@H](CCCNC(=N)N)NC(=O)[C@H](CCCNC(=N)N)NC(=O)[C@H](Cc2ccc3ccccc3c2)NC(=O)[C@H](Cc2ccc3ccccc3c2)NC(=O)[C@H](CCCNC(=N)N)NC1=O (cyclo([2Nal][2Nal]RRRR)) , thanks.
Data returned: 50 µg/mL

Data request: What MIC value was documented for this compound, N=C(N)NCCC[C@H](NC(=O)[C@H](CCCNC(=N)N)NC(=O)[C@@H](N)CCCNC(=N)N)C(=O)N[C@@H](CCCNC(=N)N)C(=O)N[C@H](C(=O)N[C@H](C(=O)O)C(c1ccccc1)c1ccccc1)C(c1ccccc1)c1ccccc1 (H-RRRR[Dip][Dip]-OH) ?
Data returned: 50 µg/mL

Data request: May I ask what MIC has been recorded for N=C(N)NCCC[C@H](NC(=O)[C@H](CCCNC(=N)N)NC(=O)[C@@H](N)CCCNC(=N)N)C(=O)N[C@@H](CCCNC(=N)N)C(=O)N[C@H](C(=O)N[C@H](C(=O)N[C@H](C(=O)O)C(c1ccccc1)c1ccccc1)C(c1ccccc1)c1ccccc1)C(c1ccccc1)c1ccccc1 (H-RRRR[Dip][Dip][Dip]-OH) ?
Data returned: 12.5 µg/mL

Data request: What value of MIC has been reported for the following compound? N=C(N)NCCC[C@@H]1NC(=O)[C@H](CCCNC(=N)N)NC(=O)[C@H](CCCNC(=N)N)NC(=O)[C@H](Cc2ccc(-c3ccccc3)cc2)NC(=O)[C@H](Cc2ccc(-c3ccccc3)cc2)NC(=O)[C@H](Cc2ccc(-c3ccccc3)cc2)NC(=O)[C@H](Cc2ccc(-c3ccccc3)cc2)NC(=O)[C@H](CCCNC(=N)N)NC1=O (cyclo([Bip][Bip][Bip][Bip]RRRR))
Data returned: > 100 µg/mL

Data request: Recorded MIC of N=C(N)NCCC[C@H](NC(=O)[C@H](CCCNC(=N)N)NC(=O)[C@@H](N)CCCNC(=N)N)C(=O)N[C@@H](Cc1ccc2ccccc2c1)C(=O)N[C@@H](Cc1ccc2ccccc2c1)C(=O)N[C@@H](Cc1ccc2ccccc2c1)C(=O)O (H-RRR[2Nal][2Nal][2Nal]-OH) , please.
Data returned: 12.5 µg/mL

***
Data request: Entry under review: N=C(N)NCCC[C@@H]1NC(=O)[C@H](CCCNC(=N)N)NC(=O)[C@H](CCCNC(=N)N)NC(=O)[C@H](C(c2ccccc2)c2ccccc2)NC(=O)[C@H](C(c2ccccc2)c2ccccc2)NC(=O)[C@H](C(c2ccccc2)c2ccccc2)NC(=O)[C@H](C(c2ccccc2)c2ccccc2)NC(=O)[C@H](CCCNC(=N)N)NC1=O (cyclo([Dip][Dip][Dip][Dip]RRRR)) . Reported MIC?
Data returned: 25 µg/mL

Data request: Consider the compound shown here: N=C(N)NCCC[C@@H]1NC(=O)[C@H](CCCNC(=N)N)NC(=O)[C@H](CCCNC(=N)N)NC(=O)[C@H](Cc2ccc3ccccc3c2)NC(=O)[C@H](Cc2ccc3ccccc3c2)NC(=O)[C@H](Cc2ccc3ccccc3c2)NC(=O)[C@H](CCCNC(=N)N)NC(=O)[C@H](CCCNC(=N)N)NC1=O (cyclo([2Nal][2Nal][2Nal]RRRRR)) What is its recorded MIC?
Data returned: 50 µg/mL

Data request: Name the recorded MIC for N=C(N)NCCC[C@H](NC(=O)[C@H](CCCNC(=N)N)NC(=O)[C@@H](N)CCCNC(=N)N)C(=O)N[C@H](C(=O)N[C@H](C(=O)N[C@H](C(=O)O)C(c1ccccc1)c1ccccc1)C(c1ccccc1)c1ccccc1)C(c1ccccc1)c1ccccc1 (H-RRR[Dip][Dip][Dip]-OH) .
Data returned: 6.2 µg/mL

Data request: Field request: MIC | item: N=C(N)NCCC[C@H](NC(=O)[C@@H](NC(=O)[C@@H](NC(=O)[C@H](CCCNC(=N)N)NC(=O)[C@H](CCCNC(=N)N)NC(=O)[C@@H](NC(=O)[C@@H](N)CCCNC(=N)N)C(c1ccccc1)c1ccccc1)C(c1ccccc1)c1ccccc1)C(c1ccccc1)c1ccccc1)C(=O)O (H-R[Dip]RR[Dip][Dip]R-OH)
Data returned: 25 µg/mL

Data request: What value of MIC has been recorded for this entry: N=C(N)NCCC[C@H](NC(=O)[C@H](CCCNC(=N)N)NC(=O)[C@@H](NC(=O)[C@@H](NC(=O)[C@H](CCCNC(=N)N)NC(=O)[C@@H](N)CCCNC(=N)N)C(c1ccccc1)c1ccccc1)C(c1ccccc1)c1ccccc1)C(=O)N[C@H](C(=O)O)C(c1ccccc1)c1ccccc1 (H-RR[Dip][Dip]RR[Dip]-OH)
Data returned: 25 µg/mL
